Target: UniProt:P10275
Sequence (P10275 1-920): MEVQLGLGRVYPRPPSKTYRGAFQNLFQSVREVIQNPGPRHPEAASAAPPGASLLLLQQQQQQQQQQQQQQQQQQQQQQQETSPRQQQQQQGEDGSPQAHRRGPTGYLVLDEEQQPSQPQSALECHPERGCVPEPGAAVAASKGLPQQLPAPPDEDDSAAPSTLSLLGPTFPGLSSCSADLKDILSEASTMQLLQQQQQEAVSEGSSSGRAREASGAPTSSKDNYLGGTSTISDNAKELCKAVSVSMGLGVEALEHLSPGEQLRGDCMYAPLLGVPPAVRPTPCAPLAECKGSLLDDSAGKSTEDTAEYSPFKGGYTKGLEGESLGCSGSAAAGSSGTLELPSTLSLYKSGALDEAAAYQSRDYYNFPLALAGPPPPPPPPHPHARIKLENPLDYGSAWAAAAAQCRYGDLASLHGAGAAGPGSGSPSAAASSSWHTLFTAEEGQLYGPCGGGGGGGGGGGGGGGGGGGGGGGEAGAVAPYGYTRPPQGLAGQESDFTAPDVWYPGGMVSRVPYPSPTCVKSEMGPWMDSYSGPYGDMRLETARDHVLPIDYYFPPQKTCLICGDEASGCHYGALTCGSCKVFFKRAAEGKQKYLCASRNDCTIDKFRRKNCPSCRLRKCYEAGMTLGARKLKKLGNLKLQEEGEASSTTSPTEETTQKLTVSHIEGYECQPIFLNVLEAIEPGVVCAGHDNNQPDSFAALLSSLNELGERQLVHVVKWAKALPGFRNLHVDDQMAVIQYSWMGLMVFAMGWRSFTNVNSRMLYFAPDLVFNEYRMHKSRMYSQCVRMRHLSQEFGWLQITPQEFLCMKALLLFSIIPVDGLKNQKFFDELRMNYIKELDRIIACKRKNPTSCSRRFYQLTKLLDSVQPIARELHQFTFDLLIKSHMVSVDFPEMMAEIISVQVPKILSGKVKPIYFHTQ
Assay: AR competition binding assay (HEK293 cell lysate)
Conditions: 0.36 nM 3H-methyltrienolone, 293-AR lysate
pKi: −log10 of the molar value.
Overview of recorded pKi for various molecules

Record excerpt, results attached:
>>> observed_result("CC(C)n1cc(-c2ccccc2)c2ccc(NS(C)(=O)=O)cc21")
"6.30 to 7.00"
>>> observed_result("CC(C)n1cc(-c2ccc(C#N)s2)c2ccc(NS(C)(=O)=O)cc21")
"6.30 to 7.00"
>>> observed_result("CC(C)n1cc(-c2ccc3c(cnn3C)c2)c2ccc(NS(C)(=O)=O)cc21")
"< 6.00"

# input for lookup
Observed pKi on UniProt:P10275, entry `COc1ccc(-c2cn(C(C)C)c3cc(NS(C)(=O)=O)ccc23)cn1` , equals < 6.00

====

tested on: uterine C3 expression (complement 3 mRNA; PR antagonist potential); assay: C3 Rat Uterine Assay; format: in vivo, Sprague Dawley female rats; conditions: immature female rats, oral gavage, with R5020 0.1 mg/kg sc and ethynyl estradiol 50 ug/kg, 3 doses at 24 hour intervals
Overview of recorded ED50 for various molecules

Recorded ED50 (molecule `Cc1cc(-c2cn(C(C)C)c3cc(NS(C)(=O)=O)ccc23)ccc1C#N` ): < 5 mg/kg

Recorded ED50 (molecule `CCCCn1cc(-c2ccc(C#N)c(F)c2)c2ccc(NS(C)(=O)=O)cc21` ): > 10 mg/kg

Recorded ED50 (molecule `CC(C)n1cc(-c2cc(F)c(C#N)c(F)c2)c2ccc(NS(C)(=O)=O)cc21` ): < 5 mg/kg

Recorded ED50 (molecule `CC(C)n1cc(-c2ccc(C#N)c(Cl)c2)c2ccc(NS(C)(=O)=O)cc21` ): < 5 mg/kg

Recorded ED50 (molecule `CC(C)n1cc(-c2ccc([N+](=O)[O-])cc2)c2ccc(NS(C)(=O)=O)cc21` ): < 5 mg/kg

Recorded ED50 (molecule `CC(C)n1cc(-c2ccc(C#N)nc2)c2ccc(NS(C)(=O)=O)cc21` ): < 5 mg/kg
